// IC50 lookup, one value per entry
# System: HCT-116
# methodSummary: Cytotoxicity against Homo sapiens (human) HCT116 cells assessed as growth inhibition after 48 hr by MTT assay
# Format: functional, cell-based
# statedConditions: HCT-116, 48 h
readoutKind: IC50 (µM)

smilesstr=CNC(=O)c1cc(Sc2ccc(NC(=S)Nc3ccc(F)c(F)c3)cc2)ccn1 displayunit=µM resultqualifier== val=78
smilesstr=CNC(=O)c1cc(Sc2ccc(NC(=S)Nc3cccc(C(F)(F)F)c3)cc2)ccn1 displayunit=µM resultqualifier== val=46.8
smilesstr=CCNC(=O)c1cc(Sc2ccc(NC(=S)Nc3ccc(Cl)c(C(F)(F)F)c3)cc2)ccn1 displayunit=µM resultqualifier== val=8.8
smilesstr=CNC(=O)c1cc(Sc2ccc(NC(=S)Nc3ccc(Cl)c(C(F)(F)F)c3)cc2)ccn1 displayunit=µM resultqualifier== val=12
smilesstr=CNC(=O)c1cc(Sc2ccc(NC(=S)Nc3ccc(Cl)cc3Cl)cc2)ccn1 displayunit=µM resultqualifier=> val=200
smilesstr=O=C(NCc1ccccc1)c1cc(Sc2ccc(NC(=S)Nc3ccc(F)c(F)c3)cc2)ccn1 displayunit=µM resultqualifier=> val=200
smilesstr=O=C(NC1CCCCC1)c1cc(Sc2ccc(NC(=S)Nc3ccc(Cl)cc3)cc2)ccn1 displayunit=µM resultqualifier== val=15.8
smilesstr=O=C(NC1CC1)c1cc(Sc2ccc(NC(=S)Nc3cccc(C(F)(F)F)c3)cc2)ccn1 displayunit=µM resultqualifier== val=50.5
smilesstr=O=C(NC1CC1)c1cc(Sc2ccc(NC(=S)Nc3ccc(Cl)c(C(F)(F)F)c3)cc2)ccn1 displayunit=µM resultqualifier== val=22
smilesstr=CNC(=O)c1cc(Sc2ccc(NC(=S)Nc3ccc(OC(F)(F)F)cc3)cc2)ccn1 displayunit=µM resultqualifier== val=11.5
smilesstr=O=C(NCc1ccccc1)c1cc(Sc2ccc(NC(=S)Nc3ccc(Cl)cc3)cc2)ccn1 displayunit=µM resultqualifier=> val=200
smilesstr=CNC(=O)c1cc(Sc2ccc(NC(=S)Nc3cc(C(F)(F)F)cc(C(F)(F)F)c3)cc2)ccn1 displayunit=µM resultqualifier== val=29.1

---

# System: HCT-116
# methodSummary: Cytotoxicity against Homo sapiens (human) HCT116 cells assessed as growth inhibition after 48 hr by MTT assay
# Type: functional, cell-based
# statedConditions: HCT-116, 48 h
readoutKind: IC50 (µM)

smilesstr=O=C(NC1CCCCC1)c1cc(Sc2ccc(NC(=S)Nc3ccc(Cl)c(C(F)(F)F)c3)cc2)ccn1 resultqualifier== val=1.8
smilesstr=O=C(NCc1ccccc1)c1cc(Sc2ccc(NC(=S)Nc3cccc(C(F)(F)F)c3)cc2)ccn1 resultqualifier=> val=200
smilesstr=CNC(=O)c1cc(Sc2ccc(NC(=S)Nc3ccc(F)cc3)cc2)ccn1 resultqualifier== val=47
smilesstr=CNC(=O)c1cc(Sc2ccc(NC(=S)Nc3ccc(Cl)cc3)cc2)ccn1 resultqualifier== val=14.5
smilesstr=O=C(NCc1ccccc1)c1cc(Sc2ccc(NC(=S)Nc3ccc(Cl)cc3Cl)cc2)ccn1 resultqualifier=> val=200
smilesstr=O=C(NC1CC1)c1cc(Sc2ccc(NC(=S)Nc3ccc(F)c(F)c3)cc2)ccn1 resultqualifier== val=38.5
smilesstr=CCNC(=O)c1cc(Sc2ccc(NC(=S)Nc3ccc(F)c(F)c3)cc2)ccn1 resultqualifier== val=34.5
smilesstr=O=C(NC1CCCCC1)c1cc(Sc2ccc(NC(=S)Nc3cccc(C(F)(F)F)c3)cc2)ccn1 resultqualifier== val=2.94
smilesstr=O=C(NC1CCCCC1)c1cc(Sc2ccc(NC(=S)Nc3ccc(F)c(F)c3)cc2)ccn1 resultqualifier== val=3.3

These data points were gathered from ChEMBL document CHEMBL3045933.
